# credit: patent US20220313698A1

# Target System: UniProt:P13569
# Assay Summary: Corrector Assay A - membrane potential dye assay (enteroid cells)
# Test Parameters: read-out: Corrector Assay A EC50; human intestinal enteroid cells, 18-24 h incubation; acute 10 μM forskolin + 300 nM ivacaftor
pEC50: −log10 of the molar value.
Measurement Name: pEC50

Please review the following examples before continuing.
CC1(C)OCCc2cc3c(nc21)N1C[C@@H](CCC(c2ccccn2)Nc2cccc(n2)S(=O)(=O)NC3=O)CC1(C)C (single isomer, unassigned) [Compound 213] ... 5.52 to 6.00
CN1CCN(c2ccc3c(n2)N2C[C@@H](CC[C@H](c4ccccn4)Nc4cccc(n4)S(=O)(=O)NC3=O)CC2(C)C)C1=O ... 5.52 to 6.00

Per the reported UniProt:P13569 data, CC(C)(C)c1ccc2c(n1)N1C[C@@H](CCC(c3ccc(CCCN)cn3)Nc3cccc(n3)S(=O)(=O)NC2=O)CC1(C)C (some centres unmarked) [Compound 137] has pEC50 of > 6.00

Value sought: pEC50, system UniProt:P13569, item CC(C)C1CC[C@@H]2CN(c3nc(-n4ccc(OCCC5C6(CC6)C56CC6)n4)ccc3C(=O)NS(=O)(=O)c3cccc(n3)N1)C(C)(C)C2 (single isomer, unassigned) [Compound 353] . Result: > 6.00

====

# Target System: CFTR-mediated chloride transport (Homo sapiens, UniProt P13569)
# Assay Summary: Corrector Assay A - membrane potential dye assay (enteroid cells)
# Test Parameters: % of chloride transport of triple combination control (1 μM (14S)-dispiro macrocycle + 3 μM tezacaftor + 300 nM ivacaftor)
Measurement Name: Corrector Assay A % activity

Study these solved cases before continuing.
CC(C)(C)c1ccc2c(n1)N1C[C@@H](CCC(c3cc(N)ccn3)Nc3cccc(n3)S(=O)(=O)NC2=O)CC1(C)C (single isomer, unassigned) [Compound 49] ... ++ (++ is 30-60%)
CC1(C)C[C@@H]2CC[C@H](c3ccccn3)Nc3cccc(n3)S(=O)(=O)NC(=O)c3ccc(C4=CCCCC4)nc3N1C2 ... +++ (+++ is >60%)
CC(C)(C)c1ccc2c(n1)N1C[C@@H](CC[C@@H](c3cc(CCN)ccn3)Nc3cccc(n3)S(=O)(=O)NC2=O)CC1(C)C (single isomer, unassigned) [Compound 85] ... ++ (++ is 30-60%)
CC(C)(C)c1ccc2c(n1)N1C[C@@H](CCC(c3ccc(N4CCOCC4)cn3)Nc3cccc(n3)S(=O)(=O)NC2=O)CC1(C)C (stereo partly drawn) [Compound 199] ... +++ (+++ is >60%)

Attention now shifts to the item below.
The reported Corrector Assay A % activity of the compound CC(C)=Cc1ccc(C2CC[C@@H]3CN(c4nc(C(C)(C)C)ccc4C(=O)NS(=O)(=O)c4cccc(n4)N2)C(C)(C)C3)nc1 (stereo partly drawn) [Compound 183] was ++ (++ is 30-60%)

====

# Target System: CFTR-mediated chloride transport (Homo sapiens)
# Assay Summary: Corrector Assay B - membrane potential dye assay (enteroid cells);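 further: methyl oxonol membrane potential fluorescence followed over 15 min after switching to chloride-free buffer with forskolin, 100 µM IBMX and ivacaftor, in presence of CaCC blockers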
# Test Parameters: % of chloride transport of triple combination control (3 μM Compound A + 3 μM tezacaftor + 300 nM ivacaftor)
Measurement Name: Corrector Assay B % activity

CC1(C)C[C@@H]2CCC(c3ccc(C(=O)O)cc3)Nc3cccc(n3)S(=O)(=O)NC(=O)c3ccc(-n4ccc(OCCC5(C(F)(F)F)CC5)n4)nc3N1C2 (single isomer, unassigned) [Compound 370] ... +++ (+++ is >60%)
CC1(C)C[C@@H]2CCCN(C[C@@H](O)CO)c3cccc(n3)S(=O)(=O)NC(=O)c3ccc(-n4ccc(OCCC5(C(F)(F)F)CC5)n4)nc3N1C2 (single isomer, unassigned) [Compound 379] ... +++ (+++ is >60%)
CC1(C)CC2CCC(c3ccccc3)Nc3cccc(n3)S(=O)(=O)NC(=O)c3ccc(-n4ccc(OCCC5(C(F)(F)F)CC5)n4)nc3N1C2 (single isomer, unassigned) [Compound 387] ... +++ (+++ is >60%)

====

# Target System: CFTR-mediated chloride transport (Homo sapiens)
# Assay Summary: Corrector Assay A - membrane potential dye assay (enteroid cells)
# Test Parameters: read-out: Corrector Assay A EC50; human intestinal enteroid cells, 18-24 h incubation; acute 10 μM forskolin + 300 nM ivacaftor
pEC50: −log10 of the molar value.
pEC50 listing for selected molecules.

Reference set (5 entries):
CC(C)N1CCN(c2ccc3c(n2)N2C[C@@H](CC[C@H](c4ccccn4)Nc4cccc(n4)S(=O)(=O)NC3=O)CC2(C)C)C1=O ... 5.52 to 6.00
CC1(C)C[C@@H]2CC[C@@H](c3ccccn3)Nc3cccc(n3)S(=O)(=O)NC(=O)c3ccc(-c4c(F)cccc4Cl)nc3N1C2 ... > 6.00
CC(C)(C)c1cccc(C2CC[C@@H]3CN(c4nc(C(C)(C)C)ccc4C(=O)NS(=O)(=O)c4cccc(n4)N2)C(C)(C)C3)c1 (single isomer, unassigned) [Compound 40] ... > 6.00
CC(C)(C)c1ccc2c(n1)N1C[C@@H](CC[C@@H](c3cccc(C4CCNCC4)n3)Nc3cccc(n3)S(=O)(=O)NC2=O)CC1(C)C ... < 5.52
CC(C)(C)c1ccc2c(n1)N1C[C@@H](CCC(C3CCN(c4ncccn4)CC3)Nc3cccc(n3)S(=O)(=O)NC2=O)CC1(C)C (stereo partly drawn) ... > 6.00

pEC50 recorded for this molecule, CC(=O)N1CCC(C2CC[C@@H]3CN(c4nc(C(C)(C)C)ccc4C(=O)NS(=O)(=O)c4cccc(n4)N2)C(C)(C)C3)CC1 (stereo partly drawn) , is > 6.00

====

# Target System: CFTR-mediated chloride transport (Homo sapiens)
# Assay Summary: Corrector Assay A - membrane potential dye assay (enteroid cells)
# Test Parameters: % of chloride transport of triple combination control (1 μM (14S)-dispiro macrocycle + 3 μM tezacaftor + 300 nM ivacaftor)
Measurement Name: Corrector Assay A % activity

Illustrative cases are given below, each with its answer.
CC(C)(C)c1ccc2c(n1)N1C[C@@H](CCC(c3cc(C4COC4)ccn3)Nc3cccc(n3)S(=O)(=O)NC2=O)CC1(C)C (single isomer, unassigned) [Compound 26] ... +++ (+++ is >60%)
CC(C)(C)c1ccc2c(n1)N1C[C@@H](CC[C@@H](c3ccccc3)Nc3cccc(n3)S(=O)(=O)NC2=O)CC1(C)C (single isomer, unassigned) [Compound 295] ... ++ (++ is 30-60%)
CC(C)(C)c1ccc2c(n1)N1C[C@@H](CC[C@@H](c3cccc(CCC#N)n3)Nc3cccc(n3)S(=O)(=O)NC2=O)CC1(C)C [Compound 139] ... + (+ is <30%)
CC(C)CN1c2cccc(n2)S(=O)(=O)NC(=O)c2ccc(C(C)(C)C)nc2N2C[C@@H](CCC1c1ccccc1)CC2(C)C (single isomer, unassigned) [Compound 270] ... + (+ is <30%)
Cc1cccc(C)c1[C@H]1CC[C@@H]2CN(c3nc(C(C)(C)C)ccc3C(=O)NS(=O)(=O)c3cccc(n3)N1)C(C)(C)C2 (single isomer, unassigned) [Compound 242] ... + (+ is <30%)
CC(C)(C)c1ccc2c(n1)N1CC(CCCNc3cc(O)cc(n3)S(=O)(=O)NC2=O)CC1(C)C (single isomer, unassigned) [Compound 251] ... + (+ is <30%)
Cn1ccc(C2CC[C@@H]3CN(c4nc(C(C)(C)C)ccc4C(=O)NS(=O)(=O)c4cccc(n4)N2)C(C)(C)C3)n1 (single isomer, unassigned) [Compound 279] ... +++ (+++ is >60%)
CC(C)(C)CCOc1cccc(-c2ccc3c(n2)N2C[C@@H](CC[C@H](c4ccccn4)Nc4cccc(n4)S(=O)(=O)NC3=O)CC2(C)C)n1 [Compound 310] ... ++ (++ is 30-60%)

For CC(C)(C)c1ccc2c(n1)N1C[C@@H](CCC(c3ccc(CN)cn3)Nc3cccc(n3)S(=O)(=O)NC2=O)CC1(C)C (some centres unmarked) [Compound 196] the molecule record lists Corrector Assay A % activity as +++ (+++ is >60%)

So for CC(C)(C)c1ccc2c(n1)N1C[C@@H](CC[C@H](c3cccc(CCCN)n3)Nc3cccc(n3)S(=O)(=O)NC2=O)CC1(C)C [Compound 134] , the logged Corrector Assay A % activity turned out to be +++ (+++ is >60%)

The recorded Corrector Assay A % activity for CC(C)(C)c1ccc2c(n1)N1C[C@@H](CC[C@H](c3cc(C(F)(F)F)ccn3)Nc3cccc(n3)S(=O)(=O)NC2=O)CC1(C)C (single isomer, unassigned) [Compound 93] is +++ (+++ is >60%)

====

Below, each of the compounds is paired with its reported EC50 value.
# Target System: CFTR-mediated chloride transport (Homo sapiens, UniProt P13569)
# Assay Summary: Corrector Assay A - membrane potential dye assay (enteroid cells)
# Test Parameters: read-out: Corrector Assay A EC50; human intestinal enteroid cells, 18-24 h incubation; acute 10 μM forskolin + 300 nM ivacaftor

Example entries begin here.
CC(C)(C)c1ccc2c(n1)N1C[C@@H](CC[C@@H](c3cccc(Br)n3)Nc3cccc(n3)S(=O)(=O)NC2=O)CC1(C)C (single isomer, unassigned) [Compound 214] ... < 1000 nM
CC(C)(C)c1ccc2c(n1)N1CC(CCCNc3cncc(n3)S(=O)(=O)NC2=O)CC1(C)C (single isomer, unassigned) [Compound 253] ... > 3000 nM
CC(C)(C)c1ccc2c(n1)N1C[C@@H](CC[C@@H](c3cccc(C4=CCNCC4)n3)Nc3cccc(n3)S(=O)(=O)NC2=O)CC1(C)C [Compound 141] ... 1000 to 3000 nM
COCCc1ccc(C2CC[C@@H]3CN(c4nc(C(C)(C)C)ccc4C(=O)NS(=O)(=O)c4cccc(n4)N2)C(C)(C)C3)nc1 (stereo partly drawn) [Compound 112] ... < 1000 nM
CC1(C)CCC(c2ccc3c(n2)N2C[C@@H](CC[C@H](c4ccccn4)Nc4cccc(n4)S(=O)(=O)NC3=O)CC2(C)C)CC1 [Compound 326] ... < 1000 nM

The compound listed as CC(C)(C)c1ccc2c(n1)N1C[C@@H](CC[C@@H](c3cccc(CN)n3)Nc3cccc(n3)S(=O)(=O)NC2=O)CC1(C)C [Compound 202] has a reported EC50 of < 1000 nM
